- protocol: NCI Yeast Anticancer Drug Screen. Data for the mec2-1 strain (AID 157)
- experimental_parameters: S. cerevisiae mec2-1 strain, at 50.0 µM, stronger effect = higher value
About 79,000 compounds went through this panel and 15% of them were active in at least one assay; those are over-represented in the sample as a whole.
Reported growth inhibition by item:
# output: bare number, implied unit %

Some entries whose results are on file:
molecule	unit_symbol	growth inhibition
C=C(Br)CN(C(C)=O)C1CCCCC1	%	-10.7
CCOC(=O)C(C(=O)OCC)C(NC(=O)Nc1cc(C(F)(F)F)ccc1OC)(C(F)(F)F)C(F)(F)F	%	11.6
CC(SC(C)C(=O)N/N=C/C=C\c1ccccc1)C(=O)N/N=C\C=C\c1ccccc1 (centres undefined)	%	5
Fc1ccc(-c2ncc(-c3ccccc3)o2)cc1	%	-22.9

Task: # input molecule: C=CCNC(=S)N(Cc1ccccc1)Cc1ccccc1 ; wanted: its growth inhibition
Result: 80

Task: Would you mind doing C/C(=C\c1ccccc1)C(=O)c1ccccc1 as well?
Result: 3.85

Task: Would you mind doing CN(O)C(=O)Cc1ccccc1 as well?
Result: 6.05

Task: Would you mind doing Cc1ccc(S(=O)(=O)O/C=C2/CCOC2=O)cc1 as well?
Result: 43.2

Task: Would you mind doing N#Cc1c2c(c(=S)n(-c3ccc(Cl)cc3)c1N)CCCC2 as well?
Result: -3.35

----------
Reported growth inhibition by item:
- protocol: NCI Yeast Anticancer Drug Screen. Data for the bub3 strain (AID 167)
- experimental_parameters: S. cerevisiae bub3 mutant strain, at 50.0 µM, stronger effect = higher value
About 79,000 compounds went through this panel and 15% of them were active in at least one assay; those are over-represented in the sample as a whole.
# output: bare number, implied unit %

Task: # input compound: O=C(O)/C=C\Sc1ccccc1C(=O)O ; wanted: its growth inhibition
Result: -10.2

Task: Would you mind doing O=c1[nH]nc(-c2ccccc2)n1/N=C/c1ccncc1 as well?
Result: 17.6

Task: Would you mind doing NNC(=O)CCC(=O)NC1C2CC3CC(C2)CC1C3 (configuration not stated) as well?
Result: -10.7

----------
- protocol: NCI Yeast Anticancer Drug Screen. Data for the mlh1 rad18 strain (AID 175)
- experimental_parameters: S. cerevisiae mlh1 rad18 strain growth inhibition; at 50.0 µM; stronger effect = higher value
About 79,000 compounds went through this panel and 15% of them were active in at least one assay; those are over-represented in the sample as a whole.
value_type: growth inhibition (%)
# output: bare number, implied unit %

compound	growth inhibition, %
CN(C)C(=O)C(NCCO)c1ccccc1 (stereo unspecified)	0.3
C=C(C)/C=C/S(=O)c1ccccc1 (stereo unspecified)	-5.15
COc1ccc(C(=O)Nc2ccccc2CCC2CCCCN2C)cc1 (stereo unspecified)	19
Cc1ccc(I)c(C)c1	-7.3
COc1ccc([N+](=O)[O-])c2ccc(=O)oc12	9.9

Task: # input compound: CCN(CC)CCCNc1ccnc2c(N)cccc12 ; wanted: its growth inhibition
Result: 6.75

Task: Would you mind doing CCOC(=O)CCC1(CCC(=O)OCC)CCCCCCCCC(CCC(=O)OCC)(CCC(=O)OCC)C(=O)C1=O as well?
Result: -1.3

Task: Would you mind doing Cc1cc(N(CCC#N)CCC#N)ccc1/C(N=Nc1ccc([N+](=O)[O-])cc1)=N\NC(=O)c1cc(Cl)ccc1C(=O)c1ccccc1 as well?
Result: 7.7

Task: Would you mind doing O=C(O)C(NCCNC(C(=O)O)c1ccccc1)c1ccccc1 (stereo unspecified) as well?
Result: 3.4

Task: Would you mind doing CCNC(=O)CCP(=O)(CCC(=O)NCC)CCC(=O)NCC as well?
Result: 6

Task: Would you mind doing O=C(O)Cn1ccc(=O)c2cc([N+](=O)[O-])ccc21 as well?
Result: -49

----------
- protocol: NCI Yeast Anticancer Drug Screen. Data for the mlh1 rad18 strain (AID 175)
- experimental_parameters: S. cerevisiae mlh1 rad18 strain growth inhibition; at 50.0 µM; stronger effect = higher value
This is part of a sample that, as a whole, favours compounds with a hit. Of some 79,000 tested, about 15% had one in any assay.
Reported growth inhibition by item:
# output: bare number, implied unit %

compound	numeric_result
Cn1cnc([N+](=O)[O-])c1Sc1nnc(C(F)(F)F)n1C	-6.95

Task: # input compound: OC1CSCCSCCCSCCSC1 ; wanted: its growth inhibition
Result: 40.4

Task: Would you mind doing COc1ccc(OC(C)C(=O)O)c2c1CCCC2=O (configuration not stated) as well?
Result: 22.7

Task: Would you mind doing Cc1ccc(NC(=S)NCC2CCCO2)cc1C (configuration not stated) as well?
Result: 14.7

Task: Would you mind doing O=C(Cl)C=Cc1ccc([N+](=O)[O-])cc1 (mixture of isomers) as well?
Result: 1.95

Task: Would you mind doing CC(C)=C1CCC(CN(C)C)C1=O (configuration not stated) as well?
Result: 7.55

Task: Would you mind doing C=CCN1C2Cc3cc(OC)c(OC)cc3C1Cc1cc(OC)c(OC)cc12 as well?
Result: -10.3

----------
- protocol: NCI Yeast Anticancer Drug Screen. Data for the mec2-1 strain (AID 157)
- experimental_parameters: S. cerevisiae mec2-1 strain, at 50.0 µM, stronger effect = higher value
Compounds without any hit were thinned out: in the full panel of roughly 79,000, 15% have a hit. Calls of active or inactive are those of the source. Rule as the data show it: active = growth inhibition above about 70%; inactive = the rest.
Reported growth inhibition by item:

Some entries whose results are on file:
compound	value_type	result
CC/C=C(\CCC)C(C#N)(CC)C(=O)OCC (stereo not drawn)	growth inhibition	-33.6% (inactive)
CC1(C)C(=O)C(C)(C)C(=O)C(C)(C)C1=O	growth inhibition	-15.7% (inactive)

Task: # input compound: COc1ccc(C(=O)C2CCC(C(=O)O)C2)cc1 (stereo not drawn) ; wanted: its growth inhibition
Result: -27.9% (inactive)

Task: Would you mind doing Cc1ccc(N2C(=O)/C(=C/c3ccc(N(CCC#N)CCC#N)cc3)N=C2COc2ccc(Cl)cc2Cl)cc1 as well?
Result: -26.9% (inactive)

Task: Would you mind doing O=C1C=C(c2ccccc2)CSC1 as well?
Result: -10.1% (inactive)

Task: Would you mind doing ClCCCCC(Cl)(Cl)Cl as well?
Result: 27.6% (inactive)

Task: Would you mind doing CC(C)=CC1C(CO)C1(C)C (stereo not drawn) as well?
Result: -17.2% (inactive)

Task: Would you mind doing CC(=O)OC1CCC2(C)C(CCC3(C)C2CC=C2C4CC(C)(C)CCC4(C)CCC23C)C1(C)C (stereo not drawn) as well?
Result: -1% (inactive)

Task: Would you mind doing COc1ccc(-n2cnc3c(cnn3C3OC(CO)C(O)C3O)c2=O)cc1 (stereo not drawn) as well?
Result: 2.95% (inactive)

Task: Would you mind doing CC(=O)Oc1cc(C)c(OC(C)=O)cc1C as well?
Result: -14.3% (inactive)

Task: Would you mind doing N=C(N)N1CCC(N2CCOCC2)CC1 as well?
Result: -18.4% (inactive)

Task: Would you mind doing C/C(CC(=O)Nc1cccc(Cl)c1C)=N\N=C(N)N as well?
Result: -27.6% (inactive)

Task: Would you mind doing Clc1ccc(Cc2ccc(Br)cc2)cc1 as well?
Result: -10.3% (inactive)

Task: Would you mind doing CC(=O)O[C@]12CCCC1C1(O)C(O)CCCC12 (stereo partly drawn) as well?
Result: -50.1% (inactive)

Task: Would you mind doing Cc1ccc(NC(=O)c2cc3cc(N=Nc4ccc(Br)cc4)ccc3oc2=O)cc1 as well?
Result: 28.1% (inactive)

Task: Would you mind doing CSC(=NCCN=C(NS(=O)(=O)c1ccc(Cl)cc1)SC)NS(=O)(=O)c1ccc(Cl)cc1 as well?
Result: -5.3% (inactive)

Task: Would you mind doing COC(=O)C1=C(NC(=O)Nc2ccc([N+](=O)[O-])cc2)OC(C)(C)C1c1ccc(Cl)cc1 (stereo not drawn) as well?
Result: 9.15% (inactive)

Task: Would you mind doing COC(=O)NS(=O)(=O)C1=Cc2cccc3cccc1c23 as well?
Result: 4.95% (inactive)

Task: Would you mind doing O=C(O)Cc1ccc(Oc2ccc(CC(=O)O)cc2)cc1 as well?
Result: -9.5% (inactive)

Task: Would you mind doing O=C(NCCCCCCNC(=O)c1ccccn1)c1ccccn1 as well?
Result: -9.9% (inactive)

----------
- protocol: NCI Yeast Anticancer Drug Screen. Data for the mec2-1 strain (AID 157)
- experimental_parameters: S. cerevisiae mec2-1 strain, at 50.0 µM, stronger effect = higher value
Compounds without any hit were thinned out: in the full panel of roughly 79,000, 15% have a hit. Where a SMILES comes first, the peptide text is derived from it. [ ]: non-standard residue; d: D form. The star is where a group is joined. NMeAc5c = CNC1(C(=O)O)CCCC1; Boc = CC(C)(C)OC(=O)*; OBn = c1ccc(CO*)cc1
value_type: growth inhibition (%)
# output: bare number, implied unit %

Some entries whose results are on file:
molecule	unit_symbol	numeric_result
CCC(C)C(O)CC (stereo not given)	%	-8.55
COC(=O)c1noc2c1CSC1=C2CS(=O)(=O)c2ccccc21	%	22
CC(C)CC(CC(C)C)NCC(C)OC(=O)c1ccc(N(C)C)cc1 (stereo not given)	%	-4.2
O=C1CSC2=NC3=C(CSC/C3=C\c3ccccc3)C(c3ccccc3)N12 (stereo not given)	%	11.5
CN(C(=O)C(Cc1ccccc1)NC(=O)OC(C)(C)C)C1(C(=O)NC(Cc2ccccc2)C(=O)OCc2ccccc2)CCCC1 (stereo not drawn) (Boc-Phe-[NMeAc5c]-Phe-OBn; configuration not given here)	%	15.6

Task: # input molecule: COC(=O)/C(C#N)=C1\CCC(OC)N1 (stereo not given) ; wanted: its growth inhibition
Result: 6.95

Task: Would you mind doing CCNc1nc(C)nc2c1cnn2-c1ccccc1 as well?
Result: -12.6

Task: Would you mind doing O=C(Cc1ccccc1)c1ccccc1C(=O)NCc1ccccc1 as well?
Result: -3.45

Task: Would you mind doing Cc1cc(OC(=O)c2ccccc2)cc(C)c1OC(=O)c1ccccc1 as well?
Result: 2.9

Task: Would you mind doing O=C(c1ccc(O)c(C(=O)O)c1)c1ccc(O)c(C(=O)O)c1 as well?
Result: -13.9
